assay: Lipophilicity, log K of the compound; format: physicochemical
Label satisfied when log K >= 0.7; otherwise not satisfied.

Check out these entries, answers already filled in.
smi=CC(C)[C@H](NC(=O)OCc1ccccc1)C(=O)Oc1ccc(Cl)cc1C(=O)Nc1ccc(Cl)cc1 qualitative_label=satisfied
smi=CC(C)[C@@H](NC(=O)OCc1ccccc1)C(=O)Oc1ccc(Cl)cc1C(=O)Nc1ccc(Cl)cc1 qualitative_label=satisfied
smi=O=C(CNC(=O)OCc1ccccc1)Oc1ccc(Cl)cc1C(=O)Nc1ccc(Cl)c(Cl)c1 qualitative_label=satisfied
smi=O=C(CNC(=O)OCc1ccccc1)Oc1ccc(Cl)cc1C(=O)Nc1ccc(Cl)cc1 qualitative_label="not satisfied"
smi=O=C(N[C@@H](Cc1ccccc1)C(=O)Oc1ccc(Cl)cc1C(=O)Nc1ccc(Cl)cc1)OCc1ccccc1 qualitative_label=satisfied

Problem: State whether the measured log K reaches 0.7, counting equality as reaching it, for C[C@H](NC(=O)OCc1ccccc1)C(=O)Oc1ccc(Cl)cc1C(=O)Nc1ccc(C(F)(F)F)cc1
Result: satisfied

Problem: State whether the measured log K reaches 0.7, counting equality as reaching it, for O=C(CNC(=O)OCc1ccccc1)Oc1ccc(Cl)cc1C(=O)Nc1cccc(Cl)c1
Result: not satisfied

Problem: State whether the measured log K reaches 0.7, counting equality as reaching it, for O=C(CNC(=O)OCc1ccccc1)Oc1ccc(Cl)cc1C(=O)Nc1ccc(C(F)(F)F)cc1
Result: satisfied

---

system: Nakaseomyces glabratus; assay: Antifungal activity against Candida glabrata 20/I after 48 hrs by broth microdilution method; type: functional
Listing: IC80 of selected molecules
State just the number; it will be interpreted in µg/mL.

// worked examples, IC80 included
molecule=C[C@H](NC(=O)OCc1ccccc1)C(=O)Oc1ccc(Cl)cc1C(=O)Nc1ccc(C(F)(F)F)cc1 metric=IC80 endpoint_value=250
molecule="OC(Cn1cncn1)(Cn1cncn1)c1ccc(F)cc1F [FLUCONAZOLE]" metric=IC80 endpoint_value=3.91
molecule=O=C(N[C@@H](Cc1ccccc1)C(=O)Oc1ccc(Cl)cc1C(=O)Nc1ccc(Cl)cc1)OCc1ccccc1 metric=IC80 endpoint_value=31.2
molecule=O=C(CNC(=O)OCc1ccccc1)Oc1ccc(Cl)cc1C(=O)Nc1ccc(Cl)cc1 metric=IC80 endpoint_value=62.5

Please examine the following record next.
Problem: Which measured IC80 value corresponds to C[C@@H](NC(=O)OCc1ccccc1)C(=O)Oc1ccc(Cl)cc1C(=O)Nc1cccc(Cl)c1 ?
Result: 62.5

---

system: Trichophyton mentagrophytes; assay: Antifungal activity against Trichophyton mentagrophytes 445 after 48 hrs by broth microdilution method; type: functional
Listing: IC80 of selected compounds
State just the number; it will be interpreted in µg/mL.

Problem: Which measured IC80 value corresponds to CC(C)[C@H](NC(=O)OCc1ccccc1)C(=O)Oc1ccc(Cl)cc1C(=O)Nc1ccc(Cl)cc1 ?
Result: 15.6

Problem: Which measured IC80 value corresponds to O=C(N[C@@H](Cc1ccccc1)C(=O)Oc1ccc(Cl)cc1C(=O)Nc1ccc(Cl)cc1)OCc1ccccc1 ?
Result: 7.81

Problem: Which measured IC80 value corresponds to O=C(CNC(=O)OCc1ccccc1)Oc1ccc(Cl)cc1C(=O)Nc1ccc(C(F)(F)F)cc1 ?
Result: 15.6

Problem: Which measured IC80 value corresponds to C[C@H](NC(=O)OCc1ccccc1)C(=O)Oc1ccc(Cl)cc1C(=O)Nc1cccc(Cl)c1 ?
Result: 7.81

Problem: Which measured IC80 value corresponds to O=C(CNC(=O)OCc1ccccc1)Oc1ccc(Cl)cc1C(=O)Nc1cccc(Cl)c1 ?
Result: 31.2

---

Listing: IC80 of selected molecules
test system: Nakaseomyces glabratus; experiment: Antifungal activity against Candida glabrata 20/I after 24 hrs by broth microdilution method; assay type: functional
State just the number; it will be interpreted in µg/mL.

Problem: Which measured IC80 value corresponds to OC(Cn1cncn1)(Cn1cncn1)c1ccc(F)cc1F ?
Result: 0.98

Problem: Which measured IC80 value corresponds to O=C(N[C@@H](Cc1ccccc1)C(=O)Oc1ccc(Cl)cc1C(=O)Nc1ccc(Cl)cc1)OCc1ccccc1 ?
Result: 31.2

Problem: Which measured IC80 value corresponds to O=C(CNC(=O)OCc1ccccc1)Oc1ccc(Cl)cc1C(=O)Nc1ccc(C(F)(F)F)cc1 ?
Result: 31.2

Problem: Which measured IC80 value corresponds to C[C@@H](NC(=O)OCc1ccccc1)C(=O)Oc1ccc(Cl)cc1C(=O)Nc1cccc(Cl)c1 ?
Result: 62.5

Problem: Which measured IC80 value corresponds to C[C@H](NC(=O)OCc1ccccc1)C(=O)Oc1ccc(Cl)cc1C(=O)Nc1cccc(Cl)c1 ?
Result: 31.2

---

test system: Nakaseomyces glabratus; test: Antifungal activity against Candida glabrata 20/I after 48 hrs by broth microdilution method; assay type: functional
Listing: IC80 of selected molecules

smi=CC(C)[C@H](NC(=O)OCc1ccccc1)C(=O)Oc1ccc(Cl)cc1C(=O)Nc1ccc(Cl)cc1 endpoint_value="> 62.5 µg/mL"
smi=C[C@H](NC(=O)OCc1ccccc1)C(=O)Oc1ccc(Cl)cc1C(=O)Nc1cccc(Cl)c1 endpoint_value="> 62.5 µg/mL"
smi=O=C(CNC(=O)OCc1ccccc1)Oc1ccc(Cl)cc1C(=O)Nc1ccc(C(F)(F)F)cc1 endpoint_value="> 125 µg/mL"
smi=O=C(CNC(=O)OCc1ccccc1)Oc1ccc(Cl)cc1C(=O)Nc1cccc(Cl)c1 endpoint_value="> 62.5 µg/mL"
smi=O=C(CNC(=O)OCc1ccccc1)Oc1ccc(Cl)cc1C(=O)Nc1ccc(Cl)c(Cl)c1 endpoint_value="> 62.5 µg/mL"

Please examine the following record next.
Problem: Which measured IC80 value corresponds to CC(C)[C@@H](NC(=O)OCc1ccccc1)C(=O)Oc1ccc(Cl)cc1C(=O)Nc1ccc(Cl)cc1 ?
Result: > 62.5 µg/mL

---

Listing: IC80 of selected compounds
test system: Trichophyton mentagrophytes; experiment: Antifungal activity against Trichophyton mentagrophytes 445 after 48 hrs by broth microdilution method; format: functional
Answer with the figure and its unit, nothing else.

// worked examples, IC80 included
compound=C[C@H](NC(=O)OCc1ccccc1)C(=O)Oc1ccc(Cl)cc1C(=O)Nc1ccc(C(F)(F)F)cc1 metric=IC80 endpoint_value="1.95 µg/mL"
compound=CC(C)[C@@H](NC(=O)OCc1ccccc1)C(=O)Oc1ccc(Cl)cc1C(=O)Nc1ccc(Cl)cc1 metric=IC80 endpoint_value="15.6 µg/mL"
compound=C[C@@H](NC(=O)OCc1ccccc1)C(=O)Oc1ccc(Cl)cc1C(=O)Nc1cccc(Cl)c1 metric=IC80 endpoint_value="7.81 µg/mL"

Problem: Request - read-out IC80 | tested on Trichophyton mentagrophytes | compound O=C(CNC(=O)OCc1ccccc1)Oc1ccc(Cl)cc1C(=O)Nc1ccc(Cl)c(Cl)c1
Result: 31.2 µg/mL

Problem: Request - read-out IC80 | tested on Trichophyton mentagrophytes | compound OC(Cn1cncn1)(Cn1cncn1)c1ccc(F)cc1F [FLUCONAZOLE]
Result: 3.91 µg/mL

Problem: Request - read-out IC80 | tested on Trichophyton mentagrophytes | compound O=C(CNC(=O)OCc1ccccc1)Oc1ccc(Cl)cc1C(=O)Nc1ccc(Cl)cc1
Result: 15.6 µg/mL

---

Listing: IC80 of selected compounds
test system: Nakaseomyces glabratus; assay: Antifungal activity against Candida glabrata 20/I after 24 hrs by broth microdilution method; assay type: functional
State just the number; it will be interpreted in µg/mL.

// worked examples, IC80 included
smi=C[C@H](NC(=O)OCc1ccccc1)C(=O)Oc1ccc(Cl)cc1C(=O)Nc1ccc(C(F)(F)F)cc1 assay_system="Nakaseomyces glabratus" endpoint_value=125
smi=O=C(CNC(=O)OCc1ccccc1)Oc1ccc(Cl)cc1C(=O)Nc1ccc(Cl)cc1 assay_system="Nakaseomyces glabratus" endpoint_value=62.5

Problem: Which measured IC80 value corresponds to O=C(CNC(=O)OCc1ccccc1)Oc1ccc(Cl)cc1C(=O)Nc1cccc(Cl)c1 ?
Result: 62.5

---

test system: Nakaseomyces glabratus; test: Antifungal activity against Candida glabrata 20/I after 24 hrs by broth microdilution method; format: functional
Listing: IC80 of selected compounds

smi=O=C(CNC(=O)OCc1ccccc1)Oc1ccc(Cl)cc1C(=O)Nc1ccc(Cl)c(Cl)c1 endpoint_value="> 62.5 µg/mL"
smi=CC(C)[C@H](NC(=O)OCc1ccccc1)C(=O)Oc1ccc(Cl)cc1C(=O)Nc1ccc(Cl)cc1 endpoint_value="> 62.5 µg/mL"

Problem: Which measured IC80 value corresponds to CC(C)[C@@H](NC(=O)OCc1ccccc1)C(=O)Oc1ccc(Cl)cc1C(=O)Nc1ccc(Cl)cc1 ?
Result: > 62.5 µg/mL
